Data origin, for the record: the supplement of paper PMC7877785

self-splicing fitness (ln) listing for selected sequences.
- test_summary: self-splicing fitness, log relative to wild type (ln ratio); higher = more splicing; Tetrahymena group I intron in knt gene, E. coli kanamycin selection, DiMSum; sequences stand for … in CUCUCU…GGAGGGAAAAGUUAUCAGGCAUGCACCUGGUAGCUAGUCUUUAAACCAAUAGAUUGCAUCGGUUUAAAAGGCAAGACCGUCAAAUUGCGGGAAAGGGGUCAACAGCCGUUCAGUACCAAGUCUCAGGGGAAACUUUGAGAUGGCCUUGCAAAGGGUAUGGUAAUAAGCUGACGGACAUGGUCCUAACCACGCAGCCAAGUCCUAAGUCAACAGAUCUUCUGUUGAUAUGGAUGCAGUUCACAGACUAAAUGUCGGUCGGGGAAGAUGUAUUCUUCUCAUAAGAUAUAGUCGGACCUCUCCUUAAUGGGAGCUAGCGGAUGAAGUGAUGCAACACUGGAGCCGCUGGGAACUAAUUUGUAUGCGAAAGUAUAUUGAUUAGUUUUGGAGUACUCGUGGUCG;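 note: selection with 25 µg/mL kanamycin versus none on LB agar overnight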
- test_context: 30 °C

Lookup: Which value of self-splicing fitness (ln) has been reported for AGGAAGCAAUAUUACGAUAG in the records?
Found: -3.02

More entries:
Lookup: Need self-splicing fitness (ln), item GCACAGCAAUAUUACGGUGC
Found: -3.09

Lookup: GUUGAGCAAUAUUACGGCGC , same question.
Found: -0.744

Lookup: Also check UACGAGCAAUAUUACGUAUA
Found: -2.7

Lookup: And GAACAGCAAUAUUACGGCUU ?
Found: -0.492

Lookup: Would you mind doing GAGAAGCAAUAUUACGUUCU as well?
Found: -4

Lookup: Another: AUAGAGCAAUAUUACGGAAG
Found: -2.48

Lookup: Also CUCAAGCAAUAUUACGCGAU , if possible.
Found: -2.3

Lookup: Please answer likewise for ACUCAGCAAUAUUACGCCCC
Found: -1.48

Lookup: Let us now turn to UAUAAGCAAUAUUACGUAUC
Found: -1.88

Lookup: Next: CCCCAGCAAUAUUACGUCUA
Found: -3.09

Lookup: Consider next the sequence GGCGAGCAAUAUUACGGCCU in the same way.
Found: -2.45

Lookup: Moving on to the next sequence: ACGUAGCAAUAUUACGACUC
Found: -0.301

Lookup: What do you have for ACCCAGCAAUAUUACGAUCG ?
Found: -1.92

Lookup: # repeat for UAACAGCAAUAUUACGUACG
Found: -0.675

Lookup: Request: AACCAGCAAUAUUACGUAGC
Found: -2.7

Lookup: For GCUCAGCAAUAUUACGCCUG then?
Found: -2.66

Lookup: Quick one: UGUAAGCAAUAUUACGACGA
Found: -0.272

Lookup: What about CGGGAGCAAUAUUACGAUGG ?
Found: -2.44

Lookup: Moving on to the next sequence: AAUCAGCAAUAUUACGCGGG
Found: -1.33

Lookup: Similarly, CCACAGCAAUAUUACGUAGA ?
Found: -2.28

Lookup: What do we get for AGUUAGCAAUAUUACGGUAU ?
Found: -2.69

Lookup: Okay, and CCGGAGCAAUAUUACGAGCC ?
Found: -3.09
